meta.source: patent US20200353088A1

System: human CGRP receptor (CLR/RAMP1), transiently transfected in Cos 7 cells (human, UniProt Q16602 23-461; O60894 27-148)
Sequence (Q16602 23-461, chain 1 of 2): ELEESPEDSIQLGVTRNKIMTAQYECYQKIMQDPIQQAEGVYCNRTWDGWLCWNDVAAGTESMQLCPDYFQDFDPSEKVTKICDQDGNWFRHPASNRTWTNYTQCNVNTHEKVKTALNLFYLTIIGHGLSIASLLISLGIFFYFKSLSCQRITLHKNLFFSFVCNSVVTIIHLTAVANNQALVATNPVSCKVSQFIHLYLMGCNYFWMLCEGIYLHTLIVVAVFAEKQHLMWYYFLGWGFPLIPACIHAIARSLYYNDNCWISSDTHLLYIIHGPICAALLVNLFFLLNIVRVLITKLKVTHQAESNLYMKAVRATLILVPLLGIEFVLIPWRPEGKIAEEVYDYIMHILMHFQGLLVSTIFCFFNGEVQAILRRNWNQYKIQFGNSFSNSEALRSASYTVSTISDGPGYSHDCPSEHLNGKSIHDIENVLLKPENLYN
Sequence (O60894 27-148, chain 2 of 2): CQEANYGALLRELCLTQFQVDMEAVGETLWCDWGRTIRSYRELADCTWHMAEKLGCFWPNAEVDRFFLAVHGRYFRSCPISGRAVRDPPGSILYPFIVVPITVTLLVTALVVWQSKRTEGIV
Protocol details: cell-based or functional assay
Where no end group is shown, it is not given here. The star is where a group is joined. Ethyl(2-palmitoyloxy) = CCCCCCCCCCCCCCCC(=O)OCC*
Parameter measured: antagonist potency pKB (cAMP assay, Cos 7)
One number for each entry.

Field: example entries. Status: answers known.
VTHRLAGLLSRSGGVVC(Ethyl(2-palmitoyloxy))NNFVPTNVGSKAF-NH2 [K24C(S-Pam) CGRP8-37 A5] = 8.17
CVTHRLAGLLSRSGGVVKNNFVPTNVGSKAF (Cys 7 (CGRP numbering; residue 1 of the entry) S-conjugated to 2-(palmitoyloxy)ethyl (S-Pam); C-terminal amide) [7C(S-Pam) CGRP7-37 B1] = 8.78
CVTHRLAGLLSRSGGVVKNNFVPTNVGSKAF-NH2 [CGRP7-37 B] = 8.31

Here is another binder to look at.
query: I'd like to know its antagonist potency pKB (cAMP assay, Cos 7). The binder in question is C(Ethyl(2-palmitoyloxy))THRLAGLLSRSGGVVKNNFVPTNVGSKAF-NH2 [V8C(S-Pam) CGRP8-37 A4]
result: 9.23
